Biological target: T1, human TSLPR (on cells) (human, UniProt Q9HC73 23-371)
T1 construct: In FACS and proliferation assays it was on BA/F3 cells stably overexpressing human TSLPR together with IL-7Rα; also called BA/F3-TSLPR/IL7Rα; thymic stromal lymphopoietin receptor
T1 sequence: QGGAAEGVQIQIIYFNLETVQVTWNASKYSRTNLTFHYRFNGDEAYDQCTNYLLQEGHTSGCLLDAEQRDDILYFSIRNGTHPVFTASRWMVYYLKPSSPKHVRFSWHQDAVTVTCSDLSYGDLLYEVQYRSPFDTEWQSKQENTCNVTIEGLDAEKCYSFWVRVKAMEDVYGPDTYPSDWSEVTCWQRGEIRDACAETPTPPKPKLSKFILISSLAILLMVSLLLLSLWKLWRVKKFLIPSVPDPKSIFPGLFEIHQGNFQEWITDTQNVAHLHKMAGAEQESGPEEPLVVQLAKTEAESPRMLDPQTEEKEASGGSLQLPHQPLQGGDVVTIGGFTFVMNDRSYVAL
Assay: FACS on BA/F3 cells stably overexpressing human TSLPR and IL-7Rα
experimentalReadout: EC50
Output should be the measured figure followed by the unit it is expressed in.

Lookup: Would you mind telling me what EC50 value was observed for TSLPR-012_166, CDR grafted (antibody, V domains shown, Humanized (CDR grafted) variant of hamster TSLPR-012; human kappa and human IgG1 or IgG4(S228P,L235E) appear only as embodiments) VH: QVQLQESGPGLVKPSQTLSLTCTVSGFSITTSGYYWSWIRQHPGKGLEWIGYIGYNSKTYYSPSLKSRVTISRDTSKNQFSLKLSSVTAADTAVYYCARSLYGGYKDAFDSWGQGTLVTVSS VL: DIQMTQSPSSLSASVGDRVTITCRASQSIGTSLHWYQHRPGETPKLLIKFASRSISGVPSRFSGSGSGTDFTLTISSLQPEDFATYYCQQSPGFPPTFGQGTKLEIKR ?
Found: 0.0118 µg/mL
